Cited source: patent US9181236B2

System: soluble human BACE1 catalytic domain (Homo sapiens (Human), UniProt P56817) | Read-out: Ki
Sequence (P56817 75-416): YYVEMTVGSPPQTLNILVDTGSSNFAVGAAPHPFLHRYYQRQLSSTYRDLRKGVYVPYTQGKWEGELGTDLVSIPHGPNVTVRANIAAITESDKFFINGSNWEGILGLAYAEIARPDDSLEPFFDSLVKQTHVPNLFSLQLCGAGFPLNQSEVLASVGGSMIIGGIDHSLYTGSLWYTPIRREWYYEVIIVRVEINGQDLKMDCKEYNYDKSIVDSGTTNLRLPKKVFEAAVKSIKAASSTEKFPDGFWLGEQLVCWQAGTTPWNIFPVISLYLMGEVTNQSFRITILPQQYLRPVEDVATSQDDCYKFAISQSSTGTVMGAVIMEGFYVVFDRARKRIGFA

Here are 4 molecules together with their reported answers.
// map `C[C@@]1(c2sc(-c3cncc(C(F)(F)F)c3)cc2Cl)CS(=O)(=O)C2(CCOCC2)C(=N)N1` to recorded Ki (system: soluble human BACE1 catalytic domain (Homo sapiens (Human), UniProt P56817))
157 nM

Fill in the recorded Ki for this molecule, with soluble human BACE1 catalytic domain (Homo sapiens (Human), UniProt P56817) as test system: `C[C@@]1(c2cc(NC(=O)c3cnsn3)ccc2F)CS(=O)(=O)C2(CCCC2)C(=N)N1`
108 nM

Request body: readout Ki, system soluble human BACE1 catalytic domain (Homo sapiens (Human), UniProt P56817), query C[C@@]1(c2sc(C#CC3CCCC3)cc2Cl)CS(=O)(=O)C2(CCC2)C(=N)N1 [Example 77b] . Return the value.
110 nM

What measured Ki is associated with C[C@@]1(c2cc(NC(=O)c3ccc(C#N)cn3)ccc2F)CS(=O)(=O)[C@@]2(CCOC2)C(=N)N1 [Example 63d] on soluble human BACE1 catalytic domain (Homo sapiens (Human), UniProt P56817)?
5.2 nM

Proceed to the following item.
Please state recorded Ki (tested on soluble human BACE1 catalytic domain (Homo sapiens (Human), UniProt P56817)) of C[C@@]1(c2cc(NC(=O)c3ccc(C#N)cn3)ccc2F)CS(=O)(=O)[C@]2(CCOC2)C(=N)N1 [Example 62e]
6.1 nM

###

Ki values, listed per item
- TESTED_ON: soluble human BACE1 catalytic domain (Homo sapiens (Human), UniProt P56817)
- TEST: BACE1 HTRF FRET Assay
- Assay type: biochemical
- ASSAY_SETUP: Ki calculated from IC50 using the Cheng-Prusoff equation
Enter your answer as a number in µM; do not include the unit.

Known Ki results, listed for orientation:
So what does the record say about Ki for CCc1cccc(NC(=O)c2cc(Cl)c([C@]3(C)CS(=O)(=O)C4(CCCCC4)C(=N)N3)s2)n1 [Example 80m] ?
0.717

Endpoint output: Ki of `C[C@@]1(c2cc([N+](=O)[O-])ccc2F)CS(=O)(=O)C2(CCC2)C(=N)N1` . Value?
3.63

---
Item C[C@@]1(c2cc(NC(=O)c3ccc(F)cn3)ccc2F)CS(=O)(=O)C2(CCC(O)C2)C(=N)N1 (single isomer, unassigned) [Example 76b] has what recorded Ki?
0.104

For the compound C[C@@]1(c2sc(-c3cncc(-c4ncco4)c3)cc2Cl)CS(=O)(=O)[C@@]2(CCOC2)C(=N)N1 [Example 63h] , what Ki is on record?
0.107

Consider the compound shown here: CC1(C(=O)Nc2ccc(F)c([C@]3(C)CS(=O)(=O)[C@]4(CCOC4)C(=N)N3)c2)COC1 [Example 81p] What is its recorded Ki?
4.19

Need Ki of `C[C@@]1(c2cc(NC(=O)c3ccc(Cl)cn3)ccc2F)CS(=O)(=O)C2(CCCC2)C(=N)N1` , thanks.
0.0013

Please look up its Ki: C[C@@]1(c2cc(NC(=O)c3ncc(Cl)cc3C#N)ccc2F)CS(=O)(=O)[C@]2(CCOC2)C(=N)N1 [Example 81ag]
0.0057

Recorded Ki of C[C@@]1(c2sc(-c3cccc(-c4nnco4)c3)cc2Cl)CS(=O)(=O)C2(CCCCC2)C(=N)N1 [Example 47a] , please.
0.0359

# input compound: C[C@@]1(c2sc(C#CCCNS(C)(=O)=O)cc2Cl)CS(=O)(=O)C2(CCC2)C(=N)N1 [Example 77c] ; wanted: its Ki
0.105

What value of Ki has been reported for the following compound? C[C@@]1(c2sc(-c3cccc(-c4nnco4)c3)cc2Cl)CS(=O)(=O)C2(CCCC2)C(=N)N1 [Example 43a]
0.037
